Where do these numbers come from? They come from paper PMC10870825.

assay system: mushroom tyrosinase (mTyr) (Agaricus bisporus, UniProt C7FF04)
Sequence (C7FF04 1-392): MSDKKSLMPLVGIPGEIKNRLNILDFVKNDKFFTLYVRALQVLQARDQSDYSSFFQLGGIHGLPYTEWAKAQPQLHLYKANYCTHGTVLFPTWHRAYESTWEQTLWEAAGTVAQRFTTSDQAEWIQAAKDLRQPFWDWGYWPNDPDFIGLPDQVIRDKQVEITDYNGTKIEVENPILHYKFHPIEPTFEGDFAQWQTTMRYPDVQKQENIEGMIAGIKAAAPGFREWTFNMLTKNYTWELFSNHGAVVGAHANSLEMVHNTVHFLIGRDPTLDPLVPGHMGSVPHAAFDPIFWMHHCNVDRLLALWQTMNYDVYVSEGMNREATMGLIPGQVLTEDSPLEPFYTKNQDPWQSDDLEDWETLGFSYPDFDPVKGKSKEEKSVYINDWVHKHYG
readout type: Ki (nM)
Your answer should be a plain number; it is taken to be in nM.

Query string: Report measured Ki on mushroom tyrosinase (mTyr) (Agaricus bisporus, UniProt C7FF04); entry: O=C(C=Cc1ccccc1)Oc1ccc(O)cc1 [Compound 3b, 4-hydroxyphenyl cinnamate]
Result string: 1880

====

assay system: mushroom tyrosinase (mTyr) (Agaricus bisporus, UniProt C7FF04)
test name: Inhibitory activity assay on mTyr with L-tyrosine as substrate
Format: biochemical
readout type: IC50 (µM)
Your answer should be a plain number; it is taken to be in µM.

Query string: Item O=C(O)C=Cc1ccc(O)cc1 [4-Hydroxycinnamic acid, 4-hydroxycinnamic acid, reference compound] : provide IC50
Result string: 16.4

====

assay system: mushroom tyrosinase (mTyr) (Agaricus bisporus, UniProt C7FF04)
test name: Inhibitory activity assay on mTyr with L-tyrosine as substrate
Type: biochemical
measurement setup: substrate L-tyrosine; read-out: IC50 for inhibiting mTyr activity
pIC50: −log10 of the molar value.
Is pIC50 at least 5? Then fulfilled. If not, not fulfilled.

> print(dat)
                                   molecule          group
1  O=C(Oc1ccc(O)cc1)c1ccccc1 [Compound 3d, 4-hydroxyphenyl benzoate]  not fulfilled
2  O=C(Oc1ccc(OC(=O)c2ccc(F)cc2)cc1)c1ccc(F)cc1 [Compound 3f, 1,4-phenylene bis(4-fluorobenzoate)]  not fulfilled
3  O=C(Oc1ccc(O)cc1)c1ccc(F)cc1 [Compound 3e, 4-hydroxyphenyl 4-fluorobenzoate]  not fulfilled
4         O=C(/C=C/c1ccc(O)cc1)Oc1ccc(O)cc1      fulfilled
5  O=C(C=Cc1ccccc1)Oc1ccc(O)cc1 [Compound 3b, 4-hydroxyphenyl cinnamate]      fulfilled

Query string: Tell me whether pIC50 is at least 5 here: Oc1ccc(O)cc1 [Hydroquinone, hydroquinone]
Result string: not fulfilled

====

Recorded maximum reaction rate (Vm) of mTyr by entry
assay system: mushroom tyrosinase (mTyr) (Agaricus bisporus, UniProt C7FF04)
test name: Inhibition reversibility and type assay (Lineweaver–Burk kinetics) on mTyr
Format: biochemical
measurement setup: compound concentration 20 μM

Take a look at these entries with their results.
> print(dat)
                                   compound     reported.result
1  O=C(Oc1ccc(O)cc1)c1ccccc1 [Compound 3d, 4-hydroxyphenyl benzoate]  0.9209 ×103, min-1
2         O=C(/C=C/c1ccc(O)cc1)Oc1ccc(O)cc1  0.1836 ×103, min-1
3  O=C(Oc1ccc(O)cc1)c1ccc(F)cc1 [Compound 3e, 4-hydroxyphenyl 4-fluorobenzoate]   1.468 ×103, min-1

Note: attention shifts to another entry.
Query string: Item O=C(CCc1ccccc1)Oc1ccc(O)cc1 [Compound 3c, 4-hydroxyphenyl 3-phenylpropanoate] : provide maximum reaction rate (Vm) of mTyr
Result string: 0.2581 ×103, min-1

====

assay system: mushroom tyrosinase (mTyr) (Agaricus bisporus)
test name: Inhibitory activity assay on mTyr with L-tyrosine as substrate
Assay type: biochemical
measurement setup: second figure of the cell rate/concentration
Is Concentration at maximum inhibition rate at least 80 µM? Then Yes. If not, No.

Query string: Tell me whether Concentration at maximum inhibition rate is at least 80 µM here: O=C(Oc1ccc(OC(=O)c2ccc(F)cc2)cc1)c1ccc(F)cc1 [Compound 3f, 1,4-phenylene bis(4-fluorobenzoate)]
Result string: Yes

Query string: Tell me whether Concentration at maximum inhibition rate is at least 80 µM here: O=C(CCc1ccccc1)Oc1ccc(O)cc1 [Compound 3c, 4-hydroxyphenyl 3-phenylpropanoate]
Result string: No

Query string: Tell me whether Concentration at maximum inhibition rate is at least 80 µM here: Oc1ccc(O)cc1 [Hydroquinone, hydroquinone]
Result string: No

Query string: Tell me whether Concentration at maximum inhibition rate is at least 80 µM here: O=C(C=Cc1ccccc1)Oc1ccc(O)cc1 [Compound 3b, 4-hydroxyphenyl cinnamate]
Result string: No

Query string: Tell me whether Concentration at maximum inhibition rate is at least 80 µM here: O=C(Oc1ccc(O)cc1)c1ccccc1 [Compound 3d, 4-hydroxyphenyl benzoate]
Result string: No

Query string: Tell me whether Concentration at maximum inhibition rate is at least 80 µM here: O=C(O)C=Cc1ccc(O)cc1 [4-Hydroxycinnamic acid, 4-hydroxycinnamic acid, reference compound]
Result string: No

Query string: Tell me whether Concentration at maximum inhibition rate is at least 80 µM here: O=C(Oc1ccc(O)cc1)c1ccc(F)cc1 [Compound 3e, 4-hydroxyphenyl 4-fluorobenzoate]
Result string: Yes

Query string: Tell me whether Concentration at maximum inhibition rate is at least 80 µM here: O=C(/C=C/c1ccc(O)cc1)Oc1ccc(O)cc1
Result string: No

====

assay system: mushroom tyrosinase (mTyr) (Agaricus bisporus)
test name: Inhibition reversibility and type assay (Lineweaver–Burk kinetics) on mTyr
Assay type: biochemical
measurement setup: compound concentration 10 μM
Recorded maximum reaction rate (Vm) of mTyr by entry

> print(dat)
                                   compound     reported.result
1         O=C(/C=C/c1ccc(O)cc1)Oc1ccc(O)cc1  0.2843 ×103, min-1
2  O=C(CCc1ccccc1)Oc1ccc(O)cc1 [Compound 3c, 4-hydroxyphenyl 3-phenylpropanoate]  0.3424 ×103, min-1
3  O=C(Oc1ccc(O)cc1)c1ccc(F)cc1 [Compound 3e, 4-hydroxyphenyl 4-fluorobenzoate]   1.470 ×103, min-1

Note: attention shifts to another entry.
Query string: Item O=C(Oc1ccc(O)cc1)c1ccccc1 [Compound 3d, 4-hydroxyphenyl benzoate] : provide maximum reaction rate (Vm) of mTyr
Result string: 0.9208 ×103, min-1

====

Recorded melting point by entry

Take a look at these entries with their results.
> print(dat)
                                   compound  reported.result
1  O=C(CCc1ccccc1)Oc1ccc(OC(=O)CCc2ccccc2)cc1 [Compound 3g, 1,4-phenylene bis(3-phenylpropanoate)]    128 to 130 °C
2  O=C(C=Cc1ccccc1)Oc1ccc(O)cc1 [Compound 3b, 4-hydroxyphenyl cinnamate]    171 to 173 °C
3  O=C(Oc1ccc(O)cc1)c1ccccc1 [Compound 3d, 4-hydroxyphenyl benzoate]    150 to 152 °C
4         O=C(/C=C/c1ccc(O)cc1)Oc1ccc(O)cc1    217 to 220 °C
5  O=C(Oc1ccc(O)cc1)c1ccc(F)cc1 [Compound 3e, 4-hydroxyphenyl 4-fluorobenzoate]    142 to 144 °C

Query string: Item O=C(CCc1ccccc1)Oc1ccc(O)cc1 [Compound 3c, 4-hydroxyphenyl 3-phenylpropanoate] : provide melting point
Result string: 149 to 151 °C

Query string: Item O=C(Oc1ccc(OC(=O)c2ccc(F)cc2)cc1)c1ccc(F)cc1 [Compound 3f, 1,4-phenylene bis(4-fluorobenzoate)] : provide melting point
Result string: 196 to 198 °C

====

assay system: UniProtKB C7FF04
test name: Inhibition reversibility and type assay (Lineweaver–Burk kinetics) on mTyr
Assay type: biochemical
measurement setup: compound concentration 5 μM
Recorded maximum reaction rate (Vm) of mTyr by entry

> print(dat)
                                   compound      assay.system    reported.result
1  O=C(Oc1ccc(O)cc1)c1ccc(F)cc1 [Compound 3e, 4-hydroxyphenyl 4-fluorobenzoate]  UniProtKB C7FF04  1.474 ×103, min-1

Query string: Item O=C(/C=C/c1ccc(O)cc1)Oc1ccc(O)cc1 : provide maximum reaction rate (Vm) of mTyr
Result string: 0.4272 ×103, min-1

Query string: Item O=C(CCc1ccccc1)Oc1ccc(O)cc1 [Compound 3c, 4-hydroxyphenyl 3-phenylpropanoate] : provide maximum reaction rate (Vm) of mTyr
Result string: 0.6327 ×103, min-1

Query string: Item O=C(Oc1ccc(O)cc1)c1ccccc1 [Compound 3d, 4-hydroxyphenyl benzoate] : provide maximum reaction rate (Vm) of mTyr
Result string: 0.9216 ×103, min-1
